Taken from the supplement of paper PMC12042874.

ASSAY SUMMARY: amyloid nucleation score (Sup35N fusion, yeast selection) (log enrichment); library NNK3; higher = more nucleation; inactive = no reads after selection;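 note: zero at mode of non-aggregating sequences after 7 days selection at 30°C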
RESULT TYPE: amyloid nucleation score

EVDFVALIPCSQTVLFTVEV
inactive
VLLNLSSFMLSTFTLRMS
inactive
RFSRRYMHGFS
inactive

====

ASSAY SUMMARY: amyloid nucleation score (Sup35N fusion, yeast selection) (log enrichment); library NNK1; higher = more nucleation; inactive = no reads after selection
Assign class by amyloid nucleation score: not lower than 0.4 means T; lower than 0.4 means F.

FIFVIDTRVLRTLINCPTPS
F

Exercise: Given `AISTCQKRVYFWVQSGFVT` , state whether its amyloid nucleation score is at least 0.4.
Solution: F

Exercise: Given `LSMGLR` , state whether its amyloid nucleation score is at least 0.4.
Solution: F

Exercise: Given `LSWCLPCLSARSVRSRRMVT` , state whether its amyloid nucleation score is at least 0.4.
Solution: F

Exercise: Given `IFNCVVLFSNTFMGYRFPFH` , state whether its amyloid nucleation score is at least 0.4.
Solution: T

====

ASSAY SUMMARY: amyloid nucleation score (Sup35N fusion, yeast selection) (log enrichment); library NNK1; higher = more nucleation; inactive = no reads after selection
RESULT TYPE: amyloid nucleation score
Reply with just the number.

Solved entries (count: 2):
DACCYDECVS
0.782
LCKPCLGY
0.639

Exercise: Assign amyloid nucleation score to the following record: `SGIPSVLATGYSYKF`
Solution: -0.273

Exercise: Assign amyloid nucleation score to the following record: `NEWKSLSINEMRGSMTINNS`
Solution: 1.44

Exercise: Assign amyloid nucleation score to the following record: `CFGASNSLLFVDSSAWGSSG`
Solution: -0.242

Exercise: Assign amyloid nucleation score to the following record: `LVWRFS`
Solution: 1.56

====

ASSAY SUMMARY: amyloid nucleation score (Sup35N fusion, yeast selection) (log enrichment); library NNK3; higher = more nucleation; inactive = no reads after selection
RESULT TYPE: amyloid nucleation score

Solved entries (count: 5):
GMCVGDLEAQTSEGTSNESW
inactive
PQHADVAFVT
inactive
FVSILLYYMPVNCLNRKTIN
inactive
FLFYLFFFSGRMDR
0.179
SSDRLYFINGRMRNRFARFC
inactive

Exercise: Assign amyloid nucleation score to the following record: `RYWHEASVVGFIWGKWVDVS`
Solution: inactive

Exercise: Assign amyloid nucleation score to the following record: `IEWACVKQMYSHRALLRERR`
Solution: inactive

Exercise: Assign amyloid nucleation score to the following record: `CKILHDRHMYVCLFAYCFVC`
Solution: inactive

Exercise: Assign amyloid nucleation score to the following record: `FHYVCFTFDSKFVGKLSYGS`
Solution: 1.61

Exercise: Assign amyloid nucleation score to the following record: `MNVFVAQSLRRVHCAHELN`
Solution: 0.233

Exercise: Assign amyloid nucleation score to the following record: `DHVGADMGLCDNVG`
Solution: inactive

Exercise: Assign amyloid nucleation score to the following record: `CRGTEAGHPHVGIDHRARMV`
Solution: -0.957

Exercise: Assign amyloid nucleation score to the following record: `TGKYRAVVLAC`
Solution: inactive

Exercise: Assign amyloid nucleation score to the following record: `CLGGQRHDVLPVCCWEFIME`
Solution: inactive

Exercise: Assign amyloid nucleation score to the following record: `FVCYNTFSSSACSLCNHLSH`
Solution: 2.4

Exercise: Assign amyloid nucleation score to the following record: `HGVWSCRWWLNNRMF`
Solution: inactive

Exercise: Assign amyloid nucleation score to the following record: `YCYRYGWYHMNEDRIWDVRL`
Solution: inactive

Exercise: Assign amyloid nucleation score to the following record: `WPGLRCDSGQDKRNMF`
Solution: -0.039

Exercise: Assign amyloid nucleation score to the following record: `RWLASNVDPKITSEIQPGAS`
Solution: inactive

Exercise: Assign amyloid nucleation score to the following record: `ELGIII`
Solution: inactive

Exercise: Assign amyloid nucleation score to the following record: `RLCSFTRYLNGATSANNVKL`
Solution: inactive

Exercise: Assign amyloid nucleation score to the following record: `PWDSLW`
Solution: 0.894

Exercise: Assign amyloid nucleation score to the following record: `GDITSEYV`
Solution: inactive

Exercise: Assign amyloid nucleation score to the following record: `NRASSVSCS`
Solution: inactive

Exercise: Assign amyloid nucleation score to the following record: `MVCEKERTWVTSRHWLERYR`
Solution: -0.203
